Biological target: T1, recombinant human TL1A (human, UniProt O95150 71-251)
T1 chain: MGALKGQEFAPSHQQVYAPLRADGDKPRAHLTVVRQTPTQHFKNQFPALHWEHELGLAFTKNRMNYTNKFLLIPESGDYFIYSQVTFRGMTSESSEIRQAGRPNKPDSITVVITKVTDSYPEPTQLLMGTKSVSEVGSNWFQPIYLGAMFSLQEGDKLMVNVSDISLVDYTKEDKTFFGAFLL
Experiment: cell-based or functional assay
value-type: TF-1 NF-κB reporter cell bioassay IC50 (nM)
Please give a number only; it is taken to be in nM.

Answered cases to consult:
binder	result-number
TL1A-0264 (antibody, human IgG1, kappa, V domains shown, human IgG1 effector-function-minimized/kappa) VH: QVQLVQSGAEVKKPGASVKVSCKASGYDYTYYGISWVRQAPGQGLEWMGWISTYNTVTHYAPSLQGRVTMTTDTSTSTAYMELRSLRSDDTAVYYCARESYYGSGAFRGGMDVWGQGTTVTVSS VL: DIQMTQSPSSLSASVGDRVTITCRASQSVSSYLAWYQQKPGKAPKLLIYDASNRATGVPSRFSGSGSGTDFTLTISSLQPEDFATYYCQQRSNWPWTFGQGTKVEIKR	30
TL1A-0267 (antibody, human IgG1, kappa, V domains shown, human IgG1 effector-function-minimized/kappa) VH: QVQLVQSGAEVKKPGASVKVSCKASGYDYTYYGISWVRQAPGQGLEWMGWISTYNTNTHYAPSLQGRVTMTTDTSTSTAYMELRSLRSDDTAVYYCARESYYGSGAHRGGMDVWGQGTTVTVSS VL: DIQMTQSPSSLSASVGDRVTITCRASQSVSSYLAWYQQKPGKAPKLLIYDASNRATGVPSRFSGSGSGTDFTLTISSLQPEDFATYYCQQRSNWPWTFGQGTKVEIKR	42.2
TL1A-0002 (antibody, human IgG1, kappa, V domains shown, human IgG1 effector-function-minimized/kappa; also called parental TL1A-0002) VH: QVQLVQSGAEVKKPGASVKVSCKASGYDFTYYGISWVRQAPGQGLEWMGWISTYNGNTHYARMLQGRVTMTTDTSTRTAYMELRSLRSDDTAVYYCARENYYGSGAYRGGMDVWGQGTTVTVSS VL: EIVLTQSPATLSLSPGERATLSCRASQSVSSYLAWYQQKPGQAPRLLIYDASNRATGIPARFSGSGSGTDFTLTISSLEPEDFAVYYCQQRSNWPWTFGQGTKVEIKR	34.7

Let us move to another entry and its TF-1 NF-κB reporter cell bioassay IC50.
Ask: I am curious: what TF-1 NF-κB reporter cell bioassay IC50 value has been reported for TL1A-0303 (antibody, human IgG1, kappa, V domains shown, human IgG1 effector-function-minimized/kappa) VH: QVQLVQSGAEVKKPGASVKVSCKASGYDFTYYGIGWVRQAPGQGLEWMGWISTYNTGTHYAPSLQGRVTMTTDTSTSTAYMELRSLRSDDTAVYYCARESYYGSGAHRGGMDVWGQGTTVTVSS VL: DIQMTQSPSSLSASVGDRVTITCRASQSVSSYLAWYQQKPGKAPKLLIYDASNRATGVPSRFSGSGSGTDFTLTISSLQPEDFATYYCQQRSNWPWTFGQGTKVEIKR ?
Reply: 49.4
